molecular target: mouse Tas2r105 (Mus musculus, UniProt Q9JKT4); construct: expressed in transfected cells; host or cells: HEK293T-Gα16gust44; test: Calcium imaging assay (FLIPR), HEK293T-Gα16gust44 cells transfected with mouse Tas2r105; type: cell-based; conditions: Time 50.781 s
Sequence (Q9JKT4 whole entry): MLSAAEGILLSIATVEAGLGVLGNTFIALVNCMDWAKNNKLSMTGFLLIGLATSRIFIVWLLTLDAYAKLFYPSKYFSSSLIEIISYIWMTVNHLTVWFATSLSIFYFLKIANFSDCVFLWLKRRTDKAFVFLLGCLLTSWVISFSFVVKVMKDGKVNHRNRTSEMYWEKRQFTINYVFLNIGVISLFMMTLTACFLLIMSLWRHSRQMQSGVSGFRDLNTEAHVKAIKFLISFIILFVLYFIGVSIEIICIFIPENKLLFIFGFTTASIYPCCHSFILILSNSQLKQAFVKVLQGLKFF

Molecule: C[C@H](CCC(=O)NCC(=O)O)[C@H]1CC[C@H]2[C@@H]3[C@H](O)C[C@@H]4C[C@H](O)CC[C@]4(C)[C@H]3C[C@H](O)[C@]12C [Glycocholic Acid, glycocholic acid]
RLU [RLU]: 238.054
//
Molecule: C[C@H](CCC(=O)O)[C@H]1CC[C@H]2[C@@H]3CC[C@@H]4C[C@H](O)CC[C@]4(C)[C@H]3CC[C@]12C [Lithocholic Acid, lithocholic acid]
RLU [RLU]: 93.6056
//
Molecule: C[C@H](CCC(=O)O)[C@H]1CC[C@H]2[C@@H]3CC[C@@H]4C[C@H](O)CC[C@]4(C)[C@H]3C[C@H](O)[C@]12C [Deoxycholic Acid, deoxycholic acid]
RLU [RLU]: -9.756
//
Molecule: C[C@H](CCC(=O)O)[C@H]1CC[C@H]2[C@@H]3[C@H](O)C[C@@H]4C[C@H](O)CC[C@]4(C)[C@H]3C[C@H](O)[C@]12C [Cholic Acid, cholic acid]
RLU [RLU]: 193.303

* * *

The reader will find reported RLU values listed item by item below.
biological target: human TAS2R1 (Homo sapiens); construct: expressed in transfected cells; host or cells: HEK293T-Gα16gust44; experiment: Calcium imaging assay (FLIPR), HEK293T-Gα16gust44 cells transfected with human TAS2R1; format: cell-based; details: Time 137.547 s
Sequence (Q9NYW7 whole entry): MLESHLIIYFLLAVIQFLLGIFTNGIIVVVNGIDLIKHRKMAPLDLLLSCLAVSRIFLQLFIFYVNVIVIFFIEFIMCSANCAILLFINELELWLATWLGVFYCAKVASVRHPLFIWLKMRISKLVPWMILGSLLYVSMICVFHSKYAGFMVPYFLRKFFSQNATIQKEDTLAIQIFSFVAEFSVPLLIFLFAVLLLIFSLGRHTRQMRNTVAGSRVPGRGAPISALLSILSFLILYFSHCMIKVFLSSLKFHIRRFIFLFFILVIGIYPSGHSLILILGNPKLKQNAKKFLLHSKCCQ

Compound Structure: C[C@H](CCC(=O)NCCS(=O)(=O)O)[C@H]1CC[C@H]2[C@@H]3CC[C@@H]4C[C@H](O)CC[C@]4(C)[C@H]3CC[C@]12C
RLU [RLU]: 402.14
//
Compound Structure: C[C@H](CCC(=O)O)[C@H]1CC[C@H]2[C@@H]3CC[C@@H]4C[C@H](O)CC[C@]4(C)[C@H]3C[C@H](O)[C@]12C
RLU [RLU]: 319.55
//
Compound Structure: C[C@H](CCC(=O)NCC(=O)O)[C@H]1CC[C@H]2[C@@H]3[C@H](O)C[C@@H]4C[C@H](O)CC[C@]4(C)[C@H]3C[C@H](O)[C@]12C
RLU [RLU]: 371.152
//
Compound Structure: C[C@H](CCC(=O)NCCS(=O)(=O)O)[C@H]1CC[C@H]2[C@@H]3[C@H](O)C[C@@H]4C[C@H](O)CC[C@]4(C)[C@H]3C[C@H](O)[C@]12C
RLU [RLU]: 257.068

* * *

The reader will find reported RLU values listed item by item below.
Molecular target: human TAS2R14 (Homo sapiens, UniProt Q9NYV8)
Construct: expressed in transfected cells; host or cells: HEK293T-Gα16gust44
Sequence (Q9NYV8 1-317): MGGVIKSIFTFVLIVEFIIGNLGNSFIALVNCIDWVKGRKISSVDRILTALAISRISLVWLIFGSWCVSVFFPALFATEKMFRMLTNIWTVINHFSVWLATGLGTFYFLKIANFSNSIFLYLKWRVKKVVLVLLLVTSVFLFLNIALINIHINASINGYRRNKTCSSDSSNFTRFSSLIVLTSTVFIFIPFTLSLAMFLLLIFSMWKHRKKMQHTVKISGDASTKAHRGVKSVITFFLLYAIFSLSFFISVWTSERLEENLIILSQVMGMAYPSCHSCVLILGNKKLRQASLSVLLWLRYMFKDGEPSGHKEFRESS
Test: Calcium imaging assay (FLIPR), HEK293T-Gα16gust44 cells transfected with human TAS2R14
Format: cell-based
Conditions: TAS2R14 trace; Time (s) 155.578 (Taurocholic Acid 155.563, Chenodeoxycholic Acid 155.546)

Compound: C[C@H](CCC(=O)O)[C@H]1CC[C@H]2[C@@H]3[C@H](O)C[C@@H]4C[C@H](O)CC[C@]4(C)[C@H]3CC[C@]12C [Chenodeoxycholic Acid, chenodeoxycholic acid]
RLU (RLU): 336.968
--
Compound: C[C@H](CCC(=O)NCC(=O)O)[C@H]1CC[C@H]2[C@@H]3[C@H](O)C[C@@H]4C[C@H](O)CC[C@]4(C)[C@H]3C[C@H](O)[C@]12C [Glycocholic Acid, glycocholic acid]
RLU (RLU): 796.558
--
Compound: C[C@H](CCC(=O)NCCS(=O)(=O)O)[C@H]1CC[C@H]2[C@@H]3[C@H](O)C[C@@H]4C[C@H](O)CC[C@]4(C)[C@H]3C[C@H](O)[C@]12C [Taurocholic Acid, taurocholic acid]
RLU (RLU): 977.028
--
Compound: C[C@H](CCC(=O)NCCS(=O)(=O)O)[C@H]1CC[C@H]2[C@@H]3CC[C@@H]4C[C@H](O)CC[C@]4(C)[C@H]3CC[C@]12C [Taurolithocholic Acid, taurolithocholic acid]
RLU (RLU): 370.686
--
Compound: C[C@H](CCC(=O)O)[C@H]1CC[C@H]2[C@@H]3[C@H](O)C[C@@H]4C[C@H](O)CC[C@]4(C)[C@H]3C[C@H](O)[C@]12C [Cholic Acid, cholic acid]
RLU (RLU): 1156.37
